molecular target: human ether-à-go-go-related gene (hERG) potassium channel (human); assay: primary screen, population patch clamp on CHO cells stably expressing hERG; higher = less effect of the substance;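 note: peak tail current of the secondary pulse compared with the same well before compound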
Sequence (Q12809 whole entry, looked up): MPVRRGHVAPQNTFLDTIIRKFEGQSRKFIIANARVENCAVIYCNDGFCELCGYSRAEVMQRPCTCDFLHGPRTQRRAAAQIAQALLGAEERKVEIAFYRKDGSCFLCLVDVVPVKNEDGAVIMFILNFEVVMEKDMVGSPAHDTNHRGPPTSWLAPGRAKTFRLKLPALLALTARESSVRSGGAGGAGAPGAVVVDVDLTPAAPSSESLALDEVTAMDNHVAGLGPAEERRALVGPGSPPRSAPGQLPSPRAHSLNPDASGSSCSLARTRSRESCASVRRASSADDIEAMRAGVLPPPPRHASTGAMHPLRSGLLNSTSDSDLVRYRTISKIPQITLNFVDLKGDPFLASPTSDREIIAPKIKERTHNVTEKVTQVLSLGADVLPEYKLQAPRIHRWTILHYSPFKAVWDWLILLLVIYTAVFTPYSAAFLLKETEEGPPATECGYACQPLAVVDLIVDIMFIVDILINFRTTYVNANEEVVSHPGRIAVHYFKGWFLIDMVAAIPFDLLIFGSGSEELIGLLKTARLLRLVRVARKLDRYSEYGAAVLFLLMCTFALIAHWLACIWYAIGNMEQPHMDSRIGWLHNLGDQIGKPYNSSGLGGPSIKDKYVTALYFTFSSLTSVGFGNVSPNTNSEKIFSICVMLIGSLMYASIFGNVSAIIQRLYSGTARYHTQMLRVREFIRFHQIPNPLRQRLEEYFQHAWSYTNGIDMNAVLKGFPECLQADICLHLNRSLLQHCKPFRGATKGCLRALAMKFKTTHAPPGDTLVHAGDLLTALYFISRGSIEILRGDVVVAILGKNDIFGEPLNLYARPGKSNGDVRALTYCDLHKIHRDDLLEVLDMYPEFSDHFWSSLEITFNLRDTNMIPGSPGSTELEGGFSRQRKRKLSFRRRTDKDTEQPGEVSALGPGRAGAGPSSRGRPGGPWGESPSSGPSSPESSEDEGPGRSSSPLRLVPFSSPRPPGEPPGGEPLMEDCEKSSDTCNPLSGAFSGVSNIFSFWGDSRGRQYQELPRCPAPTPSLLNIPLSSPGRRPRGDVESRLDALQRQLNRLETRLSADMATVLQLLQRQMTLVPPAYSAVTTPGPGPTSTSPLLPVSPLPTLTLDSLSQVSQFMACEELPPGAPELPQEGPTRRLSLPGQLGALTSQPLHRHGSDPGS
Hit rate of the full screen: of about 310,000 compounds, about 14,000 (4.5%) showed an effect of 50% or more. The effect is printed as a negative number. This is one part of a sample in which strong results are shown more often than they occur.
For each of the molecules below, state its hERG current change (%, negative = inhibition) at 10uM.
Answers are plain numbers, in %.

>  <molecule>
CC(C)c1csc(CN2CCC(CO)(Cc3cccc(F)c3)CC2)n1

>  <experimental.system>
human ether-à-go-go-related gene (hERG) potassium channel (human);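 note: peak tail current of the secondary pulse compared with the same well before compound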

>  <units.of.measure>
%

>  <measured.number>
-17.3

$$$$

Give hERG current change (%, negative = inhibition) at 10uM for all molecules that follow.
1. Cc1cc(C)cc(Oc2ccc(-c3nnc(-c4ccccc4)o3)cc2[N+](=O)[O-])c1
2. Cc1cc(C)n(CC(O)CN(c2ccccc2)S(=O)(=O)c2ccc3ccccc3c2)n1 (stereo not drawn)

Completion:
1. 7.94
2. -6.13
